Tested on: RBCs from SCD patients
Experiment: Hypoxia-induced 2,3-DPG in erythrocytes purified from SCD patients
Format: cell-based, human
Assay Setup: hypoxic conditions (2% oxygen)
Observed Property: hypoxia-mediated induction of 2,3-DPG

>>> df
                                   molecule                      observed_property  observed_measurement
0       O=C(O)CO [glycolate, glycolic acid]  hypoxia-mediated induction of 2,3-DPG               reduced
1  CCCn1c(=O)c2[nH]c(-c3ccc(OCC(=O)Nc4ccc(C#N)cc4)cc3)nc2n(CCC)c1=O  hypoxia-mediated induction of 2,3-DPG               reduced
2  O=S(=O)(NCCNC/C=C/c1ccc(Br)cc1)c1cccc2cnccc12  hypoxia-mediated induction of 2,3-DPG               reduced
